# Test system: Plasmodium berghei
# assay_method_text: Screen against P. berghei liver stage (PbLuc), transformed with Luciferase, at 2uM
# Format: functional, HepG2
# condition_summary: tested at 2 uM
Out of some 68,000 compounds screened, about 2,700 (4%) showed an effect of 50% or more. What follows is part of a selection rich in strong results, with near analogues and random picks from the rest.
INHIBITION overview
Record the value in %, omitting the unit from your answer.

Worked examples follow.
O=C(N1CCCC1)N1CCc2c(CNc3ncccn3)cncc2C1    34.98
Cc1ccc(OCCN2CCN(Cc3cnn(CCO)c3)CC2)cc1    -72.55
CCn1cnnc1C1CCN(C(=O)c2cccc(OC)c2OC)CC1    66.2

[Q] Given Cc1c(C(=O)N2CCC(C(O)c3ccc(Cl)cc3)CC2)cnn1C (configuration not stated) , state its recorded INHIBITION.
[A] 10.22

[Q] Form field: reported INHIBITION of CCn1cnnc1C1CCN(C(=O)c2cc(OC)ccc2OC)CC1
[A] -33.61

###

# System: Plasmodium berghei
# assay_method_text: Screen against P. berghei liver stage (PbLuc), transformed with Luciferase, at 2uM
# Assay type: functional, HepG2
# condition_summary: tested at 2 uM
Out of some 68,000 compounds screened, about 2,700 (4%) showed an effect of 50% or more. Many of the other results were omitted from the sample, so strong results are more common in it than they were.
property_measured: INHIBITION (%)
Express it in %; write the number only.

Study these solved cases before continuing.
COc1cc(NCCCSc2nnc(C)s2)ncn1    -29.43
CN(C)C1(CNc2nccc(C3CCCC3)n2)CCOCC1    1.1
CC(C)NS(=O)(=O)c1cc(C(=O)O)cc(-c2ccccc2F)c1    38.83

[Q] // query INHIBITION value for entry CC(C)N(C)S(=O)(=O)c1ccc2c(c1)CCN(C(=O)c1cscn1)C2
[A] -68.29

[Q] Entry CCOC(=O)C1(Cc2ccccc2-c2ccccc2OC)CCNCC1 has what INHIBITION?
[A] 29.68

[Q] Fill in the blank: the reported INHIBITION of CCOc1ncccc1Cn1cc(-c2nccn2C)nn1 is ____.
[A] -3.38

[Q] Name the recorded INHIBITION for CC(C)NS(=O)(=O)c1cc(C(=O)O)cc(-c2ccccc2CN(C)C)c1 .
[A] 58.24

[Q] Find the recorded INHIBITION belonging to CCOCCN1CCN(c2ccc(C#N)cn2)CC1 and report it.
[A] 13.14

[Q] GET /values?readout=INHIBITION&item= N[C@@H]1CC[C@H](C(=O)NCCn2cc(Cl)cn2)C1
[A] 61.95

[Q] Query (compound): O=C(NCCn1cc(Cl)cn1)C1CCN(C(=O)C2CC2)CC1 ; field requested: INHIBITION
[A] 23.64

[Q] Reported INHIBITION, compound O=C(c1cc[nH]n1)N1CCC2(CC1)CC(Oc1cccnc1)CO2 (stereo unspecified) : ____
[A] -0.83

###

# System: Plasmodium berghei
# assay_method_text: Screen against P. berghei liver stage (PbLuc), transformed with Luciferase, at 2uM
# Format: functional, HepG2
# condition_summary: tested at 2 uM
In all, about 68,000 compounds went through this assay and about 2,700 (4%) showed an effect of 50% or more. The sample as a whole holds a higher share of strong results than the screen did.
Here, each record is paired with measured INHIBITION data.
Please state the figure in %; there is no need to write the unit.

Solved entries:
CN(Cc1cccnc1)CC1CN(C(=O)C2CC2)Cc2nccn2C1 (stereo unspecified)    6.8
Cc1ncsc1-c1nnc(C2CCN(Cc3cccc(F)c3F)CC2)o1    35.56
Cc1nc(CN)cc(N2CCC(O)(c3ccc(Cl)cc3)CC2)n1    59.94
Cc1nc(CCN)cc(N2CCC(O)(c3ccccc3)C2)n1 (stereo unspecified)    23.18
Cc1c(-c2cnn(C)c2)nc(N)c(C#N)c1-c1ccc(CO)o1    55.7
CCc1ccc(-c2c(C)c(-c3cnn(C)c3)nc(N)c2C#N)o1    49.25

[Q] Which INHIBITION value belongs to Cc1nc(CCN)cc(N2CCC(O)(c3ccc(Cl)cc3)CC2)n1 ?
[A] 11.38
